Taken from PubChem BioAssay AID1963958.

Test system: MDA-MB-231 multicell spheroids, viability
MEASUREMENT DESCRIPTION: Anticancer human tumor MDA-MB-231 cell line growth inhibition [PI3K];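 note: spheroids exposed to agents for seven days before reading; percent of vehicle control luminescence with DMSO treated spheroids as 100%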
PARTICULARS: second compound 0.316 µM; first compound 1 µM; hits give low values
Please provide measured viability, T/C for the entries that follow.
Numbers only, in %.

Before answering, review these 3 worked examples.
* C[C@@H](NC(=O)c1ncnc(N)c1Cl)c1ncc(C(=O)Nc2cc(C(F)(F)F)c(Cl)cn2)s1 + CC(Nc1ccc2c(c1)OCCn1cc(N3C(=O)OCC3C(F)F)nc1-2)C(N)=O | 45.6
* Cn1nccc1Nc1nccc(-c2ccn(C(CO)c3ccc(Cl)c(F)c3)c(=O)c2)n1 (centres undefined) + CC(Nc1ccc2c(c1)OCCn1cc(N3C(=O)OCC3C(F)F)nc1-2)C(N)=O | 33.4
* CC1(C)CCC(CN2CCN(c3ccc(C(=O)NS(=O)(=O)c4ccc(NCC5CCOCC5)c([N+](=O)[O-])c4)c(Oc4cnc5[nH]ccc5c4)c3)CC2)=C(c2ccc(Cl)cc2)C1 + COc1c(OCCCN2CCOCC2)ccc2c3n(c(=NC(=O)c4cnc(N)nc4)nc12)CCN3 | 35.3

## Task Lab note: need viability, T/C for CC(Cn1ccc(-c2ccc(C#N)c(Cl)c2)n1)NC(=O)c1cc(C(C)O)[nH]n1 (centres undefined) + COc1c(OCCCN2CCOCC2)ccc2c3n(c(=NC(=O)c4cnc(N)nc4)nc12)CCN3 on MDA-MB-231 multicell spheroids, viability, anyone have it?
## Result 32
